Recorded pIC50, one value per entry.
# target-system: P2X purinoceptor 7 (Homo sapiens, UniProt Q99572)
# Sequence (Q99572 whole entry): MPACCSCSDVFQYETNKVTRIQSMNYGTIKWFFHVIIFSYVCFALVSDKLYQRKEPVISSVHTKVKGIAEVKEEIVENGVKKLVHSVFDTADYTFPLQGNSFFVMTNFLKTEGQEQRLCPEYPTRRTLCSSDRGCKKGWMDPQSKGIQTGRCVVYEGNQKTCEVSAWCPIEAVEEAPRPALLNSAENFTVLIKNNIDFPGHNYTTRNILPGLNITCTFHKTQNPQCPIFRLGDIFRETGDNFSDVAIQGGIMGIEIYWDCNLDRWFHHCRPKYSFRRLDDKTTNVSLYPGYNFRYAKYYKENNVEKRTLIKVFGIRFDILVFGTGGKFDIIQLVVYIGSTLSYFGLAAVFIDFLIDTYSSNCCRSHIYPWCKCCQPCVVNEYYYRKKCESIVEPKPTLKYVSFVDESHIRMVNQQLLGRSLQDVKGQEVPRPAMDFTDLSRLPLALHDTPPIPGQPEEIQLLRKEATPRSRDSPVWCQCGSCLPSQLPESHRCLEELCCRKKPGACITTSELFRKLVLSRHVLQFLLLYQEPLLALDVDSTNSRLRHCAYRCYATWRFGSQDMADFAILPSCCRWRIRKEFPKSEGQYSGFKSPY
# protocol-notes: Antagonist activity at P2X7 receptor in human THP-1 cells assessed as reduction in ATP induced IL-1 beta release
# Type: cell-based
// field semantics: pIC50 = negative decimal log of concentration (mol/L)

Example entries begin here.
{"molecule": "CC1=C(Cn2cc(COCc3ccco3)nn2)C(=O)c2ccccc2C1=O", "pIC50": 3.73}
{"molecule": "CC1=C(C(c2ccccc2)n2cc(COCc3ccco3)nn2)C(=O)c2ccccc2C1=O (centres undefined)", "pIC50": 3.86}
{"molecule": "CC1=C(C(c2ccc([N+](=O)[O-])cc2)n2cc(COCc3ccco3)nn2)C(=O)c2ccccc2C1=O (centres undefined)", "pIC50": 3.74}

Endpoint output: pIC50 of CC1=C(C(c2ccc(Cl)cc2)n2cc(COCc3ccco3)nn2)C(=O)c2ccccc2C1=O (centres undefined) . Value?
5.96
